# Test system: 628569-122-R-J1-PDC complex spheroid viability
# ASSAY PROTOCOL: Anticancer human tumor 628569-122-R-J1-PDC patient-derived head and neck squamous carcinoma cell line growth inhibition [CLK]
# TEST CONTEXT: second compound 0.0316 µM; first compound 0.0949 µM; active compounds read low
# From the text: A high-throughput screen of multi-cell type tumor spheroids was designed to identify active combinations of […] and targeted small molecules. Complex spheroids include a stromal component modeled by human endothelial cells (HUVEC) and fibroblasts modeled by human mesenchymal stem cells (MSCs). […] Compounds. […] If the clinical Cmax for an agent had not been determined, the highest concentration tested was 10 microM. […]
REPORTED PROPERTY: viability, T/C (%)
# output: bare number, implied unit %

CC(C)CC(NC(=O)C(Cc1ccccc1)NC(=O)c1cnccn1)B(O)O (stereo unspecified) + CNC(=O)c1ccc(Nc2nc(OC3CCCC3)c3c(-c4ccc5nc(C)oc5c4)c[nH]c3n2)c(OC)c1 = 11.1
CC(C)CC(NC(=O)C(Cc1ccccc1)NC(=O)c1cnccn1)B(O)O (stereo unspecified) + CN1CCN(c2cc(C(=O)Nc3cc4cc(-c5cnn(C)c5)ccc4cn3)ccn2)CC1 = 6.4
NC(=O)C(=Cn1cnc(-c2cc(C(F)(F)F)cc(C(F)(F)F)c2)n1)c1cncnc1 + CNC(=O)c1ccc(Nc2nc(OC3CCCC3)c3c(-c4ccc5nc(C)oc5c4)c[nH]c3n2)c(OC)c1 = 69.8

// query viability, T/C for C=CC(=O)Nc1cc(Nc2nccc(-c3cn(C)c4ccccc34)n2)c(OC)cc1N(C)CCN(C)C + CNC(=O)c1ccc(Nc2nc(OC3CCCC3)c3c(-c4ccc5nc(C)oc5c4)c[nH]c3n2)c(OC)c1 ?
// result 68.1

// query viability, T/C for NC(=O)C(=Cn1cnc(-c2cc(C(F)(F)F)cc(C(F)(F)F)c2)n1)c1cncnc1 + CN1CCN(c2cc(C(=O)Nc3cc4cc(-c5cnn(C)c5)ccc4cn3)ccn2)CC1 ?
// result 76

// query viability, T/C for C=CC(=O)Nc1cc(Nc2nccc(-c3cn(C)c4ccccc34)n2)c(OC)cc1N(C)CCN(C)C + CN1CCN(c2cc(C(=O)Nc3cc4cc(-c5cnn(C)c5)ccc4cn3)ccn2)CC1 ?
// result 98.4

* * *

Listing of recorded viability, T/C by entry.
# System: 628569-122-R-J1-PDC complex spheroid viability
# ASSAY PROTOCOL: Anticancer human tumor 628569-122-R-J1-PDC cell line growth inhibition [CLK];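 further: spheroids exposed to agents for seven days before readout; 100% = DMSO vehicle control viability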
# TEST CONTEXT: second compound 0.0316 µM; first compound 1 µM; active compounds read low
# output: bare number, implied unit %

Solved entries:
C#Cc1c(F)ccc2cc(O)cc(-c3ncc4c(N5CC6CCC(C5)N6)nc(OCC56CCCN5CC(F)C6)nc4c3F)c12 (centres undefined) + CN1CCN(c2cc(C(=O)Nc3cc4cc(-c5cnn(C)c5)ccc4cn3)ccn2)CC1 = 92.9
CC(Nc1ccc2c(c1)OCCn1cc(N3C(=O)OCC3C(F)F)nc1-2)C(N)=O (centres undefined) + CNC(=O)c1ccc(Nc2nc(OC3CCCC3)c3c(-c4ccc5nc(C)oc5c4)c[nH]c3n2)c(OC)c1 = 34.2
CCCS(=O)(=O)Nc1ccc(F)c(C(=O)c2c[nH]c3ncc(-c4ccc(Cl)cc4)cc23)c1F + CNC(=O)c1ccc(Nc2nc(OC3CCCC3)c3c(-c4ccc5nc(C)oc5c4)c[nH]c3n2)c(OC)c1 = 90.2

// query viability, T/C for CCCS(=O)(=O)Nc1ccc(F)c(C(=O)c2c[nH]c3ncc(-c4ccc(Cl)cc4)cc23)c1F + CN1CCN(c2cc(C(=O)Nc3cc4cc(-c5cnn(C)c5)ccc4cn3)ccn2)CC1 ?
// result 87.9

* * *

# Test system: 628569-122-R-J1-PDC complex spheroid viability
# ASSAY PROTOCOL: Anticancer human tumor 628569-122-R-J1-PDC cell line growth inhibition [CLK];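 further: spheroids exposed to agents for seven days before readout; 100% = DMSO vehicle control viability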
# TEST CONTEXT: second compound 10 µM; first compound 0.316 µM; active compounds read low
REPORTED PROPERTY: viability, T/C

Solved entries:
CC(=O)O[C@H]1C(=O)[C@@]2(C)[C@H]([C@H](OC(=O)c3ccccc3)[C@]3(O)C[C@H](OC(=O)[C@H](O)[C@@H](NC(=O)c4ccccc4)c4ccccc4)C(C)=C1C3(C)C)[C@]1(OC(C)=O)CO[C@@H]1C[C@@H]2O + CN1CCN(c2cc(C(=O)Nc3cc4cc(-c5cnn(C)c5)ccc4cn3)ccn2)CC1 = 3.63%
CC(Nc1ccc2c(c1)OCCn1cc(N3C(=O)OCC3C(F)F)nc1-2)C(N)=O (stereo not given) + CNC(=O)c1ccc(Nc2nc(OC3CCCC3)c3c(-c4ccc5nc(C)oc5c4)c[nH]c3n2)c(OC)c1 = 26.5%
C#Cc1c(F)ccc2cc(O)cc(-c3ncc4c(N5CC6CCC(C5)N6)nc(OCC56CCCN5CC(F)C6)nc4c3F)c12 (stereo not given) + CNC(=O)c1ccc(Nc2nc(OC3CCCC3)c3c(-c4ccc5nc(C)oc5c4)c[nH]c3n2)c(OC)c1 = 41.9%

// query Test system 628569-122-R-J1-PDC complex spheroid viability; read-out viability, T/C; what value for CC(CO)NC(=O)c1cc(-c2ccc(Cl)cc2)nn(-c2cnn(C)c2)c1=O (stereo not given) + CN1CCN(c2cc(C(=O)Nc3cc4cc(-c5cnn(C)c5)ccc4cn3)ccn2)CC1 ?
// result 3.66%

// query Test system 628569-122-R-J1-PDC complex spheroid viability; read-out viability, T/C; what value for CC(Nc1ccc2c(c1)OCCn1cc(N3C(=O)OCC3C(F)F)nc1-2)C(N)=O (stereo not given) + CN1CCN(c2cc(C(=O)Nc3cc4cc(-c5cnn(C)c5)ccc4cn3)ccn2)CC1 ?
// result 2.84%

// query Test system 628569-122-R-J1-PDC complex spheroid viability; read-out viability, T/C; what value for Nc1ccn(C2OC(CO)C(O)C2(F)F)c(=O)n1 (stereo not given) + CN1CCN(c2cc(C(=O)Nc3cc4cc(-c5cnn(C)c5)ccc4cn3)ccn2)CC1 ?
// result 3.92%

// query Test system 628569-122-R-J1-PDC complex spheroid viability; read-out viability, T/C; what value for CC(CO)NC(=O)c1cc(-c2ccc(Cl)cc2)nn(-c2cnn(C)c2)c1=O (stereo not given) + CNC(=O)c1ccc(Nc2nc(OC3CCCC3)c3c(-c4ccc5nc(C)oc5c4)c[nH]c3n2)c(OC)c1 ?
// result 76.1%

// query Test system 628569-122-R-J1-PDC complex spheroid viability; read-out viability, T/C; what value for COc1c(OCCCN2CCOCC2)ccc2c3n(c(=NC(=O)c4cnc(N)nc4)nc12)CCN3 + CN1CCN(c2cc(C(=O)Nc3cc4cc(-c5cnn(C)c5)ccc4cn3)ccn2)CC1 ?
// result 3.58%

// query Test system 628569-122-R-J1-PDC complex spheroid viability; read-out viability, T/C; what value for COc1ccc([C@@H](O)c2cc(-c3ncnc4cc(N5CCOCC5)ccc34)c(F)cc2Cl)nn1 + CNC(=O)c1ccc(Nc2nc(OC3CCCC3)c3c(-c4ccc5nc(C)oc5c4)c[nH]c3n2)c(OC)c1 ?
// result 32.2%

// query Test system 628569-122-R-J1-PDC complex spheroid viability; read-out viability, T/C; what value for CC1COCCN1c1cc(C2(S(C)(=N)=O)CC2)nc(-c2ccnc3[nH]ccc23)n1 (stereo not given) + CNC(=O)c1ccc(Nc2nc(OC3CCCC3)c3c(-c4ccc5nc(C)oc5c4)c[nH]c3n2)c(OC)c1 ?
// result 39.7%

* * *

# Tested on: 628569-122-R-J1-PDC complex spheroid viability
# ASSAY PROTOCOL: Anticancer human tumor 628569-122-R-J1-PDC cell line growth inhibition [CLK];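 further: spheroids exposed to agents for seven days before readout; 100% = DMSO vehicle control viability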
# TEST CONTEXT: second compound 1 µM; first compound 0.00949 µM; active compounds read low
# Excerpt: A high-throughput screen of multi-cell type tumor spheroids was designed to identify active combinations of […] and targeted small molecules. Complex spheroids include a stromal component modeled by human endothelial cells (HUVEC) and fibroblasts modeled by human mesenchymal stem cells (MSCs). […] Compounds. […] If the clinical Cmax for an agent had not been determined, the highest concentration tested was 10 microM. […]
REPORTED PROPERTY: viability, T/C

Solved entries:
C=CC(=O)Nc1cc(Nc2nccc(-c3cn(C)c4ccccc34)n2)c(OC)cc1N(C)CCN(C)C + CN1CCN(c2cc(C(=O)Nc3cc4cc(-c5cnn(C)c5)ccc4cn3)ccn2)CC1 = 10.9%
CC(C)CC(NC(=O)C(Cc1ccccc1)NC(=O)c1cnccn1)B(O)O (stereo unspecified) + CN1CCN(c2cc(C(=O)Nc3cc4cc(-c5cnn(C)c5)ccc4cn3)ccn2)CC1 = 4.76%
NC(=O)C(=Cn1cnc(-c2cc(C(F)(F)F)cc(C(F)(F)F)c2)n1)c1cncnc1 + CN1CCN(c2cc(C(=O)Nc3cc4cc(-c5cnn(C)c5)ccc4cn3)ccn2)CC1 = 8.6%

// query viability, T/C for C=CC(=O)Nc1cc(Nc2nccc(-c3cn(C)c4ccccc34)n2)c(OC)cc1N(C)CCN(C)C + CNC(=O)c1ccc(Nc2nc(OC3CCCC3)c3c(-c4ccc5nc(C)oc5c4)c[nH]c3n2)c(OC)c1 ?
// result 38.8%

// query viability, T/C for CC(C)CC(NC(=O)C(Cc1ccccc1)NC(=O)c1cnccn1)B(O)O (stereo unspecified) + CNC(=O)c1ccc(Nc2nc(OC3CCCC3)c3c(-c4ccc5nc(C)oc5c4)c[nH]c3n2)c(OC)c1 ?
// result 4.76%

// query viability, T/C for NC(=O)C(=Cn1cnc(-c2cc(C(F)(F)F)cc(C(F)(F)F)c2)n1)c1cncnc1 + CNC(=O)c1ccc(Nc2nc(OC3CCCC3)c3c(-c4ccc5nc(C)oc5c4)c[nH]c3n2)c(OC)c1 ?
// result 40.7%

Provenance of the data: PubChem BioAssay AID2060611
